# assay system: T1, human calcitonin receptor (human, UniProt P30988 25-474)
# T1 construct: whole, on cells; membranes of stably transfected BHK cells (Assay VII); also called hCTR; hCT
# T1 sequence (looked up): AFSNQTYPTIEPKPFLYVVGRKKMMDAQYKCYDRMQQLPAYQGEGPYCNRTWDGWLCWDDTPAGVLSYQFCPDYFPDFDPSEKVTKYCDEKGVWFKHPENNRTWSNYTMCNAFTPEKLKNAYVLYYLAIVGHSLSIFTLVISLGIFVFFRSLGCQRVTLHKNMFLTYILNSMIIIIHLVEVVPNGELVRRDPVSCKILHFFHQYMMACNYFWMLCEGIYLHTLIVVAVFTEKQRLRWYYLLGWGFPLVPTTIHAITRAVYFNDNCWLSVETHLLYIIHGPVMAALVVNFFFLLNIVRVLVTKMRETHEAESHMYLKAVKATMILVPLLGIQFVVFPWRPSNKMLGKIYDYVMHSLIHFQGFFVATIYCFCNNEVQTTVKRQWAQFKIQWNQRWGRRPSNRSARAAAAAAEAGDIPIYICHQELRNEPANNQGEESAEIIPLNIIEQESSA
# test summary: IC50 on human calcitonin receptor divided by IC50 on human amylin receptor (SPA competition)
# Method: The resulting pellet was resuspended, homogenized and centrifuged (20.000 rpm, 15 min) in a buffer containing 20 mM Na-HEPES and 0.1 mM EDTA (pH 7.4, buffer 2). The resulting pellet was resuspended in buffer 2 and protein concentration was measured (BCA protein Assay, Pierce). The homogenate was kept cold during the whole procedure. […] Samples were analyzed on TopCounter™ (Packard). The IC₅₀ was calculated using (one site binding competition analysis) GraphPad Prism5 as a measure of receptor affinity. […]
Numbered stars: 1 amine (or outer) side, 2 acyl side, 3 side chain; on linkers, the order of the positions; unused ones are H or OH. Bridge positions count the residues as written; N and C are the ends. Side chains are listed from the residue outwards. Ends that are not written are not given here. * marks the point of attachment. C20 diacid = O=C(O)CCCCCCCCCCCCCCCCCCC(=O)*; γGlu = O=C(O)[C@H](CCC(=O)[*:2])N[*:1]; AEEA = NCCOCCOCC(=O)O
recorded metric: Ratio hCT/hAmylin binding

binder	Ratio hCT/hAmylin binding
K([AEEA-C20 diacid])CNTATCATQRLANFLRHSSPNFGAIPSSTNVGSNTY-NH2 (disulfide 2-7 (inferred), analogue of human amylin; also called compound 43) [N^ε1-[2-[2-[2-(19-carboxynonadecanoylamino)ethoxy]ethoxy]acetyl]-[Arg17,Pro21,Pro27]-h-amylin]	34.7
K([γGlu-C20 diacid])RCNTATCATQRLANFLRHSSPNFGAIPSSTNVGSHTY-NH2 (disulfide 3-8 (inferred), analogue of human amylin extended by Lys at the N-terminus; also called compound 44)	17.7

I = {C20 diacid-γGlu}-KCNTATCATQRLAEFLRHSSPNFGAIPSSTNVGPNTY-NH2 (disulfide 2-7 (inferred), analogue of human amylin; also called compound 32)
II = {C20 diacid-γGlu}-KCNTATCATQRLAEFLRHSSPNFGPILPPTNVGSNTY-NH2 (disulfide 2-7 (inferred), analogue of human amylin; also called compound 6)
III = K([AEEA-γGlu-C20 diacid])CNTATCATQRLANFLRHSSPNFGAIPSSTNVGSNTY-NH2 (disulfide 2-7 (inferred), analogue of human amylin; also called compound 41)
Exam item: Put the items in order so that reported Ratio hCT/hAmylin binding rises from first to last. Reply: labels, ordered per the request.
Marked response: I, II, III

Values compiled from patent US20140087995A1.
